# assay.procedure: Plasma pharmacokinetics, single ascending dose cohorts
# Format: in vivo, human
# test.settings: human, plasma, oral, 100 mg
readout.label: AUC(0-inf)

The compound listed as Cc1cnc(-c2ccnc(C(C)(C)O)n2)cc1-n1c(C)cc(OCc2ncc(F)cc2F)c(Cl)c1=O [ATI-450] has a reported AUC(0-inf) of 3650 ng·h/mL

====

# assay.procedure: Plasma pharmacokinetics, multiple ascending dose cohorts
# Type: in vivo, human
# test.settings: human, plasma, oral, 10 mg
readout.label: Cmax at 7 day (ng/mL)
Quick reminder: number only, in ng/mL, skip the unit.

The molecule listed as "Cc1cnc(-c2ccnc(C(C)(C)O)n2)cc1-n1c(C)cc(OCc2ncc(F)cc2F)c(Cl)c1=O" has a reported Cmax at 7 day of 51.8

Measured values drawn from paper PMC8203602 for this set.
